Biological target: Muscarinic acetylcholine receptor M1 (Rattus norvegicus) (UniProt P08482)
Sequence (P08482 whole entry, looked up): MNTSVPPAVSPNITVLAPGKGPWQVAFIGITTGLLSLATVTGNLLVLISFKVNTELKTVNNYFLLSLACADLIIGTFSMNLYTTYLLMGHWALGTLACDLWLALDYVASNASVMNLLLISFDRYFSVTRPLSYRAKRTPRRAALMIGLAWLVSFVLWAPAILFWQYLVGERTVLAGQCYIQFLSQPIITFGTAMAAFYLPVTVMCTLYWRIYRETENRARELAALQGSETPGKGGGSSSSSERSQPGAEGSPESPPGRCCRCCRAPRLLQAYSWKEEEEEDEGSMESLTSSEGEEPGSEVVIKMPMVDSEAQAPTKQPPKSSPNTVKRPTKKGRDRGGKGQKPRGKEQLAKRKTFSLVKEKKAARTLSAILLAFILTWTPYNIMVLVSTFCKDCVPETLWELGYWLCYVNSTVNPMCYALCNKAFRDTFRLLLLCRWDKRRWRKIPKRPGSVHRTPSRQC
Experiment: qHTS Assay for Antagonists of Acetylcholine Muscarinic M1 Receptor: Measurement of IP-One Response (AID 944); note: nearly all actives have a fitted effect of over 75% in size
Conditions: CHO-M1 cells, IP-One HTRF, antagonist mode; series mostly up to 46.1 µM
Results filed as inconclusive are left out. Calls of active or inactive are those of the source. Calls come from the whole dose curve; as a rule, active = well fitted inhibition curve with a large enough effect; inconclusive = small, poorly fitted or top-dose-only effect; inactive = no such curve, though single readings can be large or run the other way.
Outcomes you can answer with include only these: active, inactive

Please review the entries below; each comes with its answer.
[[record]]
smiles_text = "C[C@@H]1c2cccc(O)c2C(O)=C2C(=O)[C@@]3(O)C(O)=C(C(N)=O)C(=O)[C@@H](N(C)C)[C@@H]3[C@@H](O)[C@@H]21"
label_class = "inactive"

[[record]]
smiles_text = "CN(C)CC[C@@H](c1ccccc1)c1ccccn1"
label_class = "active"

[[record]]
smiles_text = "CN1CCc2cccc3c2[C@@H]1Cc1ccc(O)c(O)c1-3"
label_class = "inactive"

[[record]]
smiles_text = "Cc1cccc(C)c1OC[C@H](C)N"
label_class = "inactive"


Continue with the next compound.
What is the recorded call for this compound in the test? `CC[C@H](NC(C)C)[C@H](O)c1ccc(O)c(O)c1`
inactive
